TEST METHOD NOTES: basal S. cerevisiae growth modulation, no modifier, primary screen, OD600, strain BY4716, 24 h, basal condition (AID 1173)
EXPERIMENTAL PARAMETERS: OD600, 24 h, higher = more signal, called active from +8 up or from −8 down
Parameter z-score: see the listing below.
Answer field: number only, no words.

// known answers, use as guide
compound=CC(CCN1CCCc2nc(C)c(C)cc21)=NOC[C@@H](O)COCc1ccco1 quantity=z-score val=0.657
compound=CC(C)(C)N1C(=O)[C@H]2[C@H]3[C@H](O)[C@H](O)CC(=NNC(=O)OCc4ccccc4)[C@@H]3CC[C@H]2C1=O quantity=z-score val=0.216

Give the value of z-score reported for the following: COC(=O)CC=C[C@@H](C)[C@@H](C=NOC(C)CN1CCCCc2nc(C)c(C)cc21)OC (stereo not given in full)
-0.927

Supply z-score value. Item: "COC(=O)[C@@H]1CC[C@H](C)[C@@H](c2ccc(C)cc2)N1C(=O)c1ccc(C=NOC[C@@H](O)[C@H]2O[C@@H]3OC(C)(C)O[C@@H]3[C@H]2O)cc1"
-0.318

Quick one: give measured z-score for "CC(C)=NO[C@H](C)c1cn([C@@H]2COC[C@H]2O)nn1"
-0.0346

Answer with the recorded z-score for the compound listed here: "Cc1cc(C)c(-c2cc([C@H](C)ON=C[C@@H](C)[C@H](OCc3ccccc3)C(C)C)on2)c(C)c1"
0.462

Dear colleague, please send me the reported z-score for COC(=O)[C@H](C)NC(=O)CCC1CC(OC(=O)NCCc2ccc(F)cc2)CC2(CCCC(COC(=O)NCCc3ccccc3OC)O2)O1 (stereo not given in full) when you can.
0.292

Give recorded z-score. "CO[C@H]1COC(=O)CCC[C@H](C)[C@H](OC)COC(=O)CC=C[C@@H]1C"
-2.21

For the compound "CO[C@@H]1COC(=O)[C@@H]2CCCN2C(=O)[C@@H](C)COC(=O)CCC[C@H]1C" , give its measured z-score value.
-0.482

Give a short answer stating reported z-score for "CO[C@@H]1COC(=O)[C@H](CCSC)NC(=O)CC=C[C@@H](C)COC(=O)[C@@H]2CCCN2C(=O)CC=C[C@H]1C" .
-0.691

Report measured z-score; entry is O=C1CCCC=C1C(O)COCc1ccccc1 (stereo not given)
-0.971

Return the recorded z-score value; entry: C[C@H]1CC[C@H]2C(=O)OC(COc3ccc(C(C)(C)C)cc3)CN2[C@@H]1c1ccc(Br)cc1 (stereo not given in full)
-4.88

Return the recorded z-score value; entry: "CCN1C(=O)[C@H]2[C@H]3[C@H](O)[C@H](O)CC(=NNC(=O)OCc4ccccc4)[C@H]3CC[C@H]2C1=O"
-0.277

Return z-score for the following compound: "CN1CCc2nc(-c3ccccc3)c(-c3ccccc3)cc2C1"
0.0367
